Measured CONFIRMATORY SCREEN Efficacy (%), listed per entry.
- Target system: CIB1 and αIIb interaction (CIB1-GST : F-αIIb peptide) (Homo sapiens)
- Construct: made in house; host or cells: BL-21 plus RIL cells (E. coli)
- Sequence (Q99828 whole entry): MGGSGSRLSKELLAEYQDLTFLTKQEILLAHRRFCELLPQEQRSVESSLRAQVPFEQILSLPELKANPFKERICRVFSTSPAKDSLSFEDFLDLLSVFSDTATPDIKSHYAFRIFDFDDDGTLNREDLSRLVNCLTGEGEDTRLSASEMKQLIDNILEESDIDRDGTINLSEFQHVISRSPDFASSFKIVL
- Assay info: FP assay, 1536-well qHTS format (primary and confirmatory screen)
- Type: binding
- Settings: confirmatory screen
Express your answer in %, writing the number without its unit.

Reference set, count: 5
{"columns": ["Molecule", "Unit", "CONFIRMATORY SCREEN Efficacy (%)"],
 "data": [
  ["CN(C)CCN1C(=O)c2cccc3cc(N)cc(c23)C1=O", "%", -50],
  ["Fc1ccc(NC(=S)Nc2nnc(-c3ccncc3)s2)cc1C(F)(F)F.O=C(O)C(F)(F)F", "%", -35],
  ["O=C(O)C(F)(F)F.O=C1Nc2ccccc2/C1=N/NC(=S)Nc1cccnc1", "%", -44],
  ["O=C(O)C(F)(F)F.O=C1CCCC2=C1C1(CCCOC1)N=C(Nc1nc3ccccc3o1)N2 (stereo not shown)", "%", -18],
  ["O=C(O)C(F)(F)F.O=C1CCCC2=C1C(c1cccnc1Br)N=C(Nc1nc3ccccc3o1)N2 (stereo not shown)", "%", -31]
]}

Record NC(=O)c1ccc(O)c2ncccc12 : what is its CONFIRMATORY SCREEN Efficacy (%) with CIB1 and αIIb interaction (CIB1-GST : F-αIIb peptide) (Homo sapiens)?
-19
